Molecular target: T1, Bud14, P27637
T1 sequence (P27637 247-328, looked up): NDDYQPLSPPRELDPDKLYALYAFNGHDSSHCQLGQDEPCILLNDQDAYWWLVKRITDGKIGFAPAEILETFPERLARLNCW
Assay: SPOT array
Details: median of control spots 956
Metric: SPOT intensity

For orientation, consider the following solved cases.
| Binder | Test Result |
| --- | --- |
| ALKQKKIPPPFKPHL | 0 |
| GQYRRTIVIPRRFFT | 13 |
| SRSKPLPLTPNSKYN | 5 |

(I) TKFRISLGLPVGAIM
(II) PPPPPPPPPPPLPQS
(III) NLPKRKPPKLQGPFS
(IV) PSTMDFPKLPSFQNS
Q: Hey, quick one: sort these by SPOT intensity, low to high? # respond with the labels, arranged in the requested order
A: II, IV, I, III
(II: 0, IV: 1, I: 6, III: 12)

(A) HVRRSILALPLGVLL
(B) RAPPPVPKKPSSRIA
(C) AAAPKHAPPPVPNET
Q: Please give the order of these binders when sorted by SPOT intensity, largest value leading. # respond with the labels, arranged in the requested order
A: A, B, C

(A) SKIRPTPRKPSRMAT
(B) QQNRPLPQLPNRNNR
(C) IPSRPAPKPPSSASA
Q: Please give the order of these binders when sorted by SPOT intensity, largest value leading. # respond with the labels, arranged in the requested order
A: A, B, C
(A: 13, B: 4, C: 0)

(A) STKKPRPPVKSKPKH
(B) NRARYLPQNPDIIAG
Q: Please choose the item with the lower SPOT intensity value from this pair: A and B Pick one and reply with its label.
A: A
(A: 3, B: 11)
